# assay-conditions: in DMF, 313.15 K
readout-name: solubility (mole fraction)

`Nc1ncnc2c1ncn2[C@@H]1O[C@H](CO)[C@@H](O)[C@H]1O` has a reported solubility (mole fraction) of 0.0108

* * *

# assay-conditions: in propylene glycol, 308.15 K
readout-name: solubility (mole fraction)
Answers are plain numbers.

Lookup result for `Nc1ncnc2c1ncn2[C@@H]1O[C@H](CO)[C@@H](O)[C@H]1O` ; measured solubility (mole fraction): 0.00537

* * *

# assay-conditions: in water, 283.15 K
readout-name: solubility (mole fraction)
Numbers only.

Data point: `Nc1ncnc2c1ncn2[C@@H]1O[C@H](CO)[C@@H](O)[C@H]1O` ; solubility (mole fraction) = 0.000237

* * *

# assay-conditions: in propylene glycol, 278.15 K
readout-name: solubility (mole fraction)
One number for each entry.

// field: solubility (mole fraction); key: `Nc1ncnc2c1ncn2[C@@H]1O[C@H](CO)[C@@H](O)[C@H]1O` ; value = 0.00352

* * *

# assay-conditions: in water, 318.15 K
readout-name: solubility (mole fraction)
Give bare numbers.

# compound `Nc1ncnc2c1ncn2[C@@H]1O[C@H](CO)[C@@H](O)[C@H]1O` ; its solubility (mole fraction) = 0.000876

* * *

# assay-conditions: in water, 298.15 K
readout-name: solubility (mole fraction)
Answers are plain numbers.

Kindly note the recorded solubility (mole fraction) for `Nc1ncnc2c1ncn2[C@@H]1O[C@H](CO)[C@@H](O)[C@H]1O` , which is 0.000426

* * *

# assay-conditions: in water, 303.15 K
readout-name: solubility (mole fraction)

So, `Nc1ncnc2c1ncn2[C@@H]1O[C@H](CO)[C@@H](O)[C@H]1O` ? Its solubility (mole fraction) was 0.000516

* * *

# assay-conditions: in NMP, 323.15 K
readout-name: solubility (mole fraction)
Give bare numbers.

Recorded result, `Nc1ncnc2c1ncn2[C@@H]1O[C@H](CO)[C@@H](O)[C@H]1O` , solubility (mole fraction): 0.0582

* * *

# assay-conditions: in DMSO, 318.15 K
readout-name: solubility (mole fraction)

The measured solubility (mole fraction) associated with `Nc1ncnc2c1ncn2[C@@H]1O[C@H](CO)[C@@H](O)[C@H]1O` reads 0.00488

* * *

# assay-conditions: in propylene glycol, 318.15 K
readout-name: solubility (mole fraction)
One number for each entry.

Item: `Nc1ncnc2c1ncn2[C@@H]1O[C@H](CO)[C@@H](O)[C@H]1O` | solubility (mole fraction): 0.00623

* * *

# assay-conditions: in DMSO, 313.15 K
readout-name: solubility (mole fraction)

Lab book: solubility (mole fraction) of `Nc1ncnc2c1ncn2[C@@H]1O[C@H](CO)[C@@H](O)[C@H]1O` noted as 0.00442

* * *

# assay-conditions: in NMP, 283.15 K
readout-name: solubility (mole fraction)

# solubility (mole fraction) of `Nc1ncnc2c1ncn2[C@@H]1O[C@H](CO)[C@@H](O)[C@H]1O` = 0.035

* * *

# assay-conditions: in water, 278.15 K
readout-name: solubility (mole fraction)
Answers are plain numbers.

Query `Nc1ncnc2c1ncn2[C@@H]1O[C@H](CO)[C@@H](O)[C@H]1O` yields solubility (mole fraction) of 0.00019

* * *

# assay-conditions: in propylene glycol, 313.15 K
readout-name: solubility (mole fraction)
Give bare numbers.

Documented solubility (mole fraction) of `Nc1ncnc2c1ncn2[C@@H]1O[C@H](CO)[C@@H](O)[C@H]1O` : 0.0058
